As shown below, each of these compounds has a reported pIC50 value.
Biological target: METTL3/14 (Homo sapiens)
Construct: The enzyme used was full-length his-tagged METTL3; His; made in house
Experiment: METTL3/14 methyltransferase assay (METTL3_14 RFMS, RapidFire mass spectrometry)
Type: biochemical
Details: 5 nM METTL3/14, 0.2 μM RNA substrate, 0.5 μM SAM; lower limit of the assay IC50=5 nM; Compounds 266-351; read-out: METTL3_14 RFMS IC50
Structures can show the parent of a compound that is named as a salt.
Kindly note that pIC50 refers to -log10 of the concentration in mol/L and answer with the value alone.

# compound, metricName, measValue
data = [
    ("CC1(C)CCN(Cc2ccc3nc(CNC(=O)c4cc(OCCOCCN)cc5[nH]ncc45)cn3c2)CC1 [Example 312, trihydrochloride]", "pIC50", 7.28),
    ("OC1(CNCc2ccc3nc(Cn4cc(-c5cc(Br)cc6[nH]ncc56)nn4)cn3c2)CCCCC1 [Example 294]", "pIC50", 8.24),
    ("COc1cc(-c2cn(Cc3cn4cc(CNCC5(OC)CCC5)ccc4n3)nn2)c2cn[nH]c2c1 [Example 343]", "pIC50", 8.21),
]

// next item, pIC50 requested
Asked: Record lookup: for METTL3/14 (Homo sapiens), what pIC50 belongs to c1cc2nc(Cn3cc(-c4cc(N5CCOCC5)cc5[nH]ncc45)nn3)cn2cc1CNCC1CCC1 [Example 311] ?
Given back: 7.72

====

Molecular target: METTL3/14 (Homo sapiens)
Construct: The enzyme used was full-length his-tagged METTL3; His; made in house
Assay: METTL3/14 methyltransferase assay (METTL3_14 RFMS, RapidFire mass spectrometry)
Assay type: biochemical
Details: read-out: IC50
Entries annotated with measured IC50
All answers are understood in nM, so give the number only.

# structureSmilesString, displayUnit, measValue
data = [
    ("O=C(NCc1cn2cc(CNCCCc3ccccc3)ccc2n1)c1cc(=O)n2ccccc2n1", "nM", 66),
]

Next compound, please.
Asked: // lookup IC50 for O=C(NCc1cn2cc(CNCCc3ccccc3)ccc2n1)c1cc(=O)n2ccccc2n1
Given back: 27

====

Molecular target: METTL3/14 (Homo sapiens)
Construct: The enzyme used was full-length his-tagged METTL3; His; made in house
Assay: METTL3/14 methyltransferase assay (METTL3_14 RFMS, RapidFire mass spectrometry)
Format: biochemical
Details: 5 nM METTL3/14, 0.2 μM RNA substrate, 0.5 μM SAM; lower limit of the assay IC50=5 nM; Compounds 63-265; read-out: METTL3_14 RFMS IC50
metricName: pIC50
Keep it numeric: pIC50 is minus log10 of the concentration in mol/L.

# compound, pIC50
records = [
    ("CC(C)(NCc1ccc2nc(CNC(=O)c3cc(=O)n4ccccc4n3)cn2c1)c1ccccc1", 6.79),
    ("O=C(NCc1cn2cc(CNCC3CCCO3)ccc2n1)c1cc(=O)n2ccccc2n1 (stereo not shown)", 7.13),
    ("CN(Cc1ccccc1)Cc1ccc2nc(CNC(=O)c3cc(=O)n4ccccc4n3)cn2c1", 6.91),
]

Consider the record given below.
Asked: Endpoint output: pIC50 of O=C(NCc1cn2cc(CNCC3COC3)ccc2n1)c1cc(=O)n2ccccc2n1 . Value?
Given back: 6.96

====

Molecular target: METTL3/14 (Homo sapiens, UniProt Q86U44)
Construct: The enzyme used was full-length his-tagged METTL3; His; made in house
Sequence (Q86U44 whole entry): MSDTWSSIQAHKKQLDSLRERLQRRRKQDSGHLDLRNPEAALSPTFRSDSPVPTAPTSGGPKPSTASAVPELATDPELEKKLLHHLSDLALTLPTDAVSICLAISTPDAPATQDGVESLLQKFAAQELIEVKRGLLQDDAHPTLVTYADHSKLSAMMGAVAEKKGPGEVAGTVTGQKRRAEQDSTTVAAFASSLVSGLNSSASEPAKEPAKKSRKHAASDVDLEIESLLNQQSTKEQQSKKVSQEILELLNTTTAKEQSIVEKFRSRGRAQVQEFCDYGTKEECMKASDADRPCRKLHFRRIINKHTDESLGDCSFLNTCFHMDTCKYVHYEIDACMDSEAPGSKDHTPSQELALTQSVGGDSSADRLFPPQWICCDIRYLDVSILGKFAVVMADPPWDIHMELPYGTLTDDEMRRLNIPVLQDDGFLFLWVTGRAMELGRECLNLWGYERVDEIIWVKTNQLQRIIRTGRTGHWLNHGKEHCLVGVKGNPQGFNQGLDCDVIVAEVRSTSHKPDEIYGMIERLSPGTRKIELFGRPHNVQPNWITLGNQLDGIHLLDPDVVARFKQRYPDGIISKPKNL
Sequence (Q9HCE5 whole entry partner): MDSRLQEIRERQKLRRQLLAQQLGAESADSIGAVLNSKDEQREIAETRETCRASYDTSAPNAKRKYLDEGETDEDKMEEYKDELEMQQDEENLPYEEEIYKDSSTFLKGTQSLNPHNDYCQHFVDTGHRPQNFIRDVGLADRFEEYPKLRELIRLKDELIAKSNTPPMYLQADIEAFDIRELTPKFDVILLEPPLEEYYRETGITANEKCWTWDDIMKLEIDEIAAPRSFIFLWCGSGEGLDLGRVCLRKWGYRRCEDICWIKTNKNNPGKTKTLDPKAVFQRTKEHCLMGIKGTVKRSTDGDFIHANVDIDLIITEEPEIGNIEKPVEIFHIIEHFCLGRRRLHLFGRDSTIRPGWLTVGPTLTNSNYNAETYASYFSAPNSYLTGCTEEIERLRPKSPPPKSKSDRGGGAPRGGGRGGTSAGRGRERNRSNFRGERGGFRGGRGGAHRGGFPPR
Test: METTL3/14 methyltransferase assay (METTL3_14 RFMS, RapidFire mass spectrometry)
Assay type: biochemical
Conditions: 5 nM METTL3/14, 0.2 μM RNA substrate, 0.5 μM SAM; lower limit of the assay IC50=5 nM; Compounds 63-265; read-out: METTL3_14 RFMS IC50
metricName: pIC50
Scale: pIC50 equals -log10([C]), with [C] in mol/L.

# molecule, pIC50
records = [
    ("O=C(NCc1cn2cc(CN3CCC(c4ccccc4)C3)ccc2n1)c1cc(=O)n2ccccc2n1 (stereo not shown)", 5.99),
    ("O=C(NCc1cn2cc(CNCC(F)F)ccc2n1)c1cc(=O)n2ccccc2n1", 6.24),
    ("CC(NCC1CCCCC1)c1ccc2nc(Cn3cc(-c4cccc5[nH]ncc45)nn3)cn2c1 (stereo not shown)", 7.59),
]

Asked: // returns reported pIC50 for input CCCNCc1ccc2nc(CNC(=O)c3cc(=O)n4ccccc4n3)cn2c1
Given back: 7.40

Asked: Please give the measured pIC50 for this molecule: CC1CN(Cc2ccc3nc(CNC(=O)c4cc(=O)n5ccccc5n4)cn3c2)CC(C)O1 (stereo not shown)
Given back: 5.73

Asked: Name the recorded pIC50 for O=C(NCc1cn2cc(CNC3(C4CCCCC4)CC3)ccc2n1)c1cc(=O)n2ccccc2n1 .
Given back: 7.34

Asked: Please look up its pIC50: O=C(NCc1cn2cc(CN3CCC(Cc4ccccc4)CC3)ccc2n1)c1cc(=O)n2ccccc2n1
Given back: 6.75

====

Tested on: MOLM-13 cells
Assay: MOLM13 CTG - analysis of cell proliferation (Cell Titre Glo)
Type: cell-based
Conditions: Homo sapiens, geometric mean, read-out: CTG MOLM13 cells IC50 GEOMEAN
Consider the cut-off 4 µM. If the recorded IC50 is strictly smaller, the label is Fulfilled; if not, the label is Not fulfilled.

Observe how each entry below is paired with its result.
# compound, className
rows = [
    ("O=C(NCc1cn2cc(CNCCC3CC3)ccc2n1)c1cc(=O)c2ccccc2o1 [Compound 218]", "Not fulfilled"),
    ("CC(C)(C)NCc1ccc2nc(CNC(=O)c3cc(=O)n4ccccc4n3)cn2c1 [Compound 127]", "Not fulfilled"),
    ("O=c1cc(-c2cn(Cc3cn4cc(CNCC5CCC5)ccc4n3)nn2)nc2ccccn12 [Example 342]", "Not fulfilled"),
    ("Fc1cc(-c2cn(Cc3cn4cc(CNCC5CCCCC5)ccc4n3)nn2)c2cn[nH]c2c1 [Example 320]", "Fulfilled"),
    ("OC1(CNCc2ccc3nc(Cn4cc(-c5cc(Cl)cc6[nH]ncc56)nn4)cn3c2)CCC1 [Example 303]", "Fulfilled"),
]

Continue with the next compound.
Asked: Quick check: IC50 of Fc1cc(-c2cn(Cc3cn4cc(CNCC5CCC5)ccc4n3)nn2)c2cn[nH]c2c1 [Example 318] under 4 µM?
Given back: Fulfilled

====

# IC50 values compiled below
Molecular target: METTL3/14 (Homo sapiens, UniProt Q86U44)
Construct: The enzyme used was full-length his-tagged METTL3; His; made in house
Assay: METTL3/14 methyltransferase assay (METTL3_14 RFMS, RapidFire mass spectrometry)
Type: biochemical
Conditions: 5 nM METTL3/14, 0.2 μM RNA substrate, 0.5 μM SAM; lower limit of the assay IC50=5 nM; Compounds 63-265; read-out: METTL3_14 RFMS IC50
Express your answer in nM, writing the number without its unit.

Example results:
# compound, measurementTarget, IC50, nM
records = [
    ("O=C(NCc1cn2cc(CNC(C3CC3)C3CC3)ccc2n1)c1cc(=O)n2ccccc2n1 [Compound 135]", "METTL3/14 (Homo sapiens, UniProt Q86U44)", 18.3),
    ("O=C(NCc1cn2cc(CNc3ccc(F)cn3)ccc2n1)c1cc(=O)n2ccccc2n1 [Compound 196]", "METTL3/14 (Homo sapiens, UniProt Q86U44)", 597),
    ("CN(Cc1ccc2nc(CNC(=O)c3cc(=O)n4ccccc4n3)cn2c1)CC1CC1 [Compound 136]", "METTL3/14 (Homo sapiens, UniProt Q86U44)", 99),
    ("Cc1ccc2c(=O)cc(C(=O)NCc3cn4cc(CNCC5CCCCC5)ccc4n3)oc2c1 [Compound 181]", "METTL3/14 (Homo sapiens, UniProt Q86U44)", 179),
]

Asked: For the compound CC1(C)CCOC1CNCc1ccc2nc(CNC(=O)c3cc(=O)n4ccccc4n3)cn2c1 (centres unmarked) [Compound 150] , what IC50 is on record?
Given back: 29.9

Asked: Could you tell me which IC50 is on file for O=C(NCc1cn2cc(CNCC3CCC(F)(F)CC3)ccc2n1)c1cc(=O)n2ccccc2n1 [Compound 101] ?
Given back: 18.1

====

Biological target: METTL3/14 (Homo sapiens)
Construct: The enzyme used was full-length his-tagged METTL3; His; made in house
Experiment: METTL3/14 methyltransferase assay (METTL3_14 RFMS, RapidFire mass spectrometry);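 further: recombinant His-tagged METTL3 with FLAG-tagged METTL14 from baculovirus, SAH product quantified by mass spectrometry against isotope-labelled internal standards, 60 min at room temperature, scaled between no-RNA and DMSO-only wells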
Assay type: biochemical
Conditions: 5 nM METTL3/14, 0.2 μM RNA substrate, 0.5 μM SAM; lower limit of the assay IC50=5 nM; Compounds 63-265; read-out: METTL3_14 RFMS IC50
metricName: pIC50
Quick note: pIC50 means taking -log10 of the concentration in moles per liter.

Example entries and their recorded answers appear below.
# compound, pIC50
records = [
    ("CC(C)(C)OC(=O)NCCc1ccc2nc(CNC(=O)c3cc(=O)n4ccccc4n3)cn2c1 [Compound 67]", 5.09),
    ("O=C(NCc1cn2cc([C@H]3COC[C@@H](C4CCCCC4)N3)ccc2n1)c1cc(=O)n2ccccc2n1 [Example 230]", 7.09),
    ("O=C(NCc1cn2cc(CNCC3COCCO3)ccc2n1)c1cc(=O)n2ccccc2n1 (centres unmarked) [Compound 108]", 6.62),
    ("CC(C)(C)OC(=O)N1CCCCC1CNCc1ccc2nc(CNC(=O)c3cc(=O)n4ccccc4n3)cn2c1 (centres unmarked) [Compound 102]", 6.37),
    ("CC(C)(C)OC(=O)N1CCCC(CNCc2ccc3nc(CNC(=O)c4cc(=O)n5ccccc5n4)cn3c2)C1 (centres unmarked) [Compound 100]", 5.86),
    ("CN(Cc1ccc2nc(CNC(=O)c3cc(=O)n4ccccc4n3)cn2c1)CC(C)(C)C [Compound 205]", 6.71),
    ("CC(C)(C)CNCc1ccc2nc(Cn3cc(-c4cc(Br)cc5[nH]ncc45)nn3)cn2c1 [Example 225]", 8.17),
    ("CC(C)(C)OCCNCc1ccc2nc(CNC(=O)c3cc(=O)n4ccccc4n3)cn2c1 [Compound 152]", 6.98),
]

Asked: Request the reported pIC50 associated with O=C(NCc1cn2cc(CNCc3ccn(CC(F)(F)F)n3)ccc2n1)c1cc(=O)n2ccccc2n1 [Compound 105]
Given back: 5.92

Asked: I am curious: what pIC50 value has been reported for O=C(NCc1cn2cc(CNC3CCCOC3)ccc2n1)c1cc(=O)n2ccccc2n1 (centres unmarked) [Compound 124] ?
Given back: 6.92

Asked: Quick one: pIC50 for CC1(CNCc2ccc3nc(CNC(=O)c4cc(=O)n5ccccc5n4)cn3c2)CCCO1 (centres unmarked) [Compound 160] ?
Given back: 7.03

Asked: Entry O=C(NCc1cn2cc(CNC3(C4CC4)CC3)ccc2n1)c1cc(=O)n2ccccc2n1 [Compound 197] : reported pIC50 = ?
Given back: 7.07

Asked: Data request, read-out pIC50, for CC(C)(C)CNCc1ccc2nc(Cn3cc(-c4cccc5[nH]ncc45)nn3)cn2c1 [Example 250]
Given back: 7.95

Asked: Look at this compound and give its reported pIC50. O=C(NCc1ccccc1)c1ccc2nc(CNC(=O)c3cc(=O)n4ccccc4n3)cn2c1 [Compound 68]
Given back: 5.29
